TARGET_OF_ASSAY: Beta-2 adrenergic receptor (Homo sapiens) (UniProt P07550)
Sequence (P07550 whole entry, looked up): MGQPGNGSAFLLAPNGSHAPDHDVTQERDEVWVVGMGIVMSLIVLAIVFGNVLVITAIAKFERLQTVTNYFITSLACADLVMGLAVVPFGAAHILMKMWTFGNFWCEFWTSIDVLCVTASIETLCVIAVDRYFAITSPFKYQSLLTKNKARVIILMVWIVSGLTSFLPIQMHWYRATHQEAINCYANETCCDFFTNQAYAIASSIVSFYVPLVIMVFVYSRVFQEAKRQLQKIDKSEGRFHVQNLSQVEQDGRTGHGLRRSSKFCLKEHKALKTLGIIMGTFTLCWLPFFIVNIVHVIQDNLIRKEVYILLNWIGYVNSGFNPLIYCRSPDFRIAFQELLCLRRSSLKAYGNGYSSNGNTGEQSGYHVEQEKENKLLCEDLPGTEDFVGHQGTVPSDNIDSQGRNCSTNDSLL
ASSAY_SUMMARY: Intrinsic activity (IA) human Beta-2 adrenergic receptor (at 30 uM, represent by the percentage of the maximal response attained by isoproterenol)
Assay type: functional
Measured IA, listed per entry for reference.
MEASURED_QUANTITY: IA

CC(C)(Cc1ccc(NS(=O)(=O)NC2CCCCC2)cc1)NC[C@H](O)c1cccnc1 19
O=S(=O)(Nc1ccc(CCNC[C@H](O)c2cccnc2)cc1)N1CCCCC1 6
O=S(=O)(Nc1ccc(CCNC[C@H](O)c2cccc(Cl)c2)cc1)N1CCCCC1 5
CC(C)(Cc1ccc(NS(=O)(=O)Nc2ccccc2)cc1)NC[C@H](O)c1cccnc1 8
O=S(=O)(Nc1ccc(CCNC[C@H](O)c2cccc(Cl)c2)cc1)NC1CCCCC1 7
C[C@@H]1CN(S(=O)(=O)Nc2ccc(CC(C)(C)NC[C@H](O)c3cccnc3)cc2)C[C@H](C)O1 8
CN(C)S(=O)(=O)Nc1ccc(CCNC[C@H](O)c2cccc(Cl)c2)cc1 6
CN(C)S(=O)(=O)Nc1ccc(OCCNC[C@H](O)c2cccnc2)cc1 4
CC1CCN(S(=O)(=O)Nc2ccc(OCCNC[C@H](O)c3cccnc3)cc2)CC1 7

----------
Measured IA by item
TARGET_OF_ASSAY: Beta-2 adrenergic receptor (Homo sapiens) (UniProt P07550)
ASSAY_SUMMARY: Intrinsic activity (IA) human Beta-2 adrenergic receptor (at 30 uM, represent by the percentage of the maximal response attained by isoproterenol)
Assay type: functional
MEASURED_QUANTITY: IA

COCCNS(=O)(=O)Nc1ccc(CC(C)(C)NC[C@H](O)c2cccnc2)cc1 24
O=S(=O)(Nc1ccc(CCNC[C@H](O)c2cccnc2)cc1)NC1CCCCC1 0
CN(C1CCCCC1)S(=O)(=O)Nc1ccc(CCNC[C@H](O)c2cccnc2)cc1 16
C[C@@H]1C[C@H](C)CN(S(=O)(=O)Nc2ccc(CCNC[C@H](O)c3cccnc3)cc2)C1 17
CC(C)(Cc1ccc(NS(=O)(=O)N2CCC(c3ccccc3)CC2)cc1)NC[C@H](O)c1cccnc1 9
CN(C)S(=O)(=O)Nc1ccc(CC(C)(C)NC[C@H](O)c2cccnc2)cc1 7
CN1CCN(S(=O)(=O)Nc2ccc(CC(C)(C)NC[C@H](O)c3cccnc3)cc2)CC1 4
CN(C)S(=O)(=O)N(C)c1ccc(CCNC[C@H](O)c2cccc(Cl)c2)cc1 1
O=S(=O)(Nc1ccc(CCNC[C@H](O)c2cccnc2)cc1)N1CCC(c2ccccc2)CC1 2

----------
TARGET_OF_ASSAY: Beta-3 adrenergic receptor (Homo sapiens, UniProt P13945)
Sequence (P13945 whole entry, looked up): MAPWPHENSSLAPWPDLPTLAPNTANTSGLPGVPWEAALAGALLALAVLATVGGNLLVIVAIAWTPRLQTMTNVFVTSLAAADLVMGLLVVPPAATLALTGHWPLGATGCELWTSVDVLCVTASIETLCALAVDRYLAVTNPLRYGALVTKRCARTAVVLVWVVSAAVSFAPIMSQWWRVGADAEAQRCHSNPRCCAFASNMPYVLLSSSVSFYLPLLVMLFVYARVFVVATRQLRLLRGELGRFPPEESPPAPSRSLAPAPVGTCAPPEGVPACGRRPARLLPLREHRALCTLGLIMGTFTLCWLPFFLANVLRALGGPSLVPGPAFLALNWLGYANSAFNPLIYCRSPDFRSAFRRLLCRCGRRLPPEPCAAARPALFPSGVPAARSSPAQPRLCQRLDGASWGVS
ASSAY_SUMMARY: Intrinsic activity (IA) at human Beta-3 adrenergic receptor (represented by the percentage of the maximal response attained by isoproterenol)
Format: functional
Hi, to clarify the labels: YES covers IA from 100 upward, NO covers anything below 100.

CC(C)(Cc1ccc(NS(=O)(=O)N2CCC(c3ccccc3)CC2)cc1)NC[C@H](O)c1cccnc1 YES
CC(C)(Cc1ccc(NS(=O)(=O)NC2CCCCC2)cc1)NC[C@H](O)c1cccnc1 YES
O=S(=O)(Nc1ccc(CCNC[C@H](O)c2cccc(Cl)c2)cc1)N1CCCCC1 NO
CC(C)(Cc1ccc(NS(=O)(=O)Nc2ccccc2)cc1)NC[C@H](O)c1cccnc1 YES
O=S(=O)(Nc1ccc(CCNC[C@H](O)c2cccnc2)cc1)NC1CCCCC1 NO
O=S(=O)(Nc1ccc(CCNC[C@H](O)c2cccnc2)cc1)N1CCCCC1 NO
O=S(=O)(Nc1ccc(CCNC[C@H](O)c2cccnc2)cc1)c1ccc(-c2nc(-c3ccc(C(F)(F)F)cc3)cs2)cc1 NO
CN1CCN(S(=O)(=O)Nc2ccc(CC(C)(C)NC[C@H](O)c3cccnc3)cc2)CC1 NO
